Origin of measurements: patent US11046716B2

Target: OXA-48 (UniProt Q6XEC0)
Assay: β-lactamase enzyme inhibition assay, Class D oxacillinase
Settings: read-out: OXA-48
pIC50: −log10 of the molar value.
recorded.endpoint: pIC50

Worked cases, answers included:
molecule: CSCC[C@@H](C(=O)N[C@H]1Cc2cccc(C(=O)O)c2OB1O)n1cc(CN)nn1
val: 5.00 to 6.00

molecule: NCCn1cc(C(=O)N[C@H]2Cc3cccc(C(=O)O)c3OB2O)nn1
val: 5.00 to 6.00

molecule: NCc1nnc(CC(=O)N[C@H]2Cc3cccc(C(=O)O)c3OB2O)s1
val: 6.00 to 7.00

// recorded pIC50 for Nc1cnn(CC(=O)N[C@H]2Cc3cccc(C(=O)O)c3OB2O)c1 : 6.00 to 7.00

Just so you know, measured pIC50 for O=C(Cn1cc(C(=O)NC2CNC2)nn1)N[C@H]1Cc2cccc(C(=O)O)c2OB1O came out at 5.00 to 6.00

---

Target: VIM-2 (Escherichia coli)
Construct: made in house; host or cells: E. coli BL21(DE3)
Assay: β-lactamase enzyme inhibition assay, VIM-2 (nitrocefin substrate)
Format: biochemical
Conditions: Class B; nitrocefin substrate, 486 nm; read-out: VIM-2
pIC50: −log10 of the molar value.
recorded.endpoint: pIC50

Solved cases (2 shown):
molecule: CC(C)NCCc1cn(CC(=O)N[C@H]2Cc3cccc(C(=O)O)c3OB2O)nn1
pIC50: 5.00 to 6.00
//
molecule: NCc1nnn(CC(=O)N[C@H]2Cc3cccc(C(=O)O)c3OB2O)c1-c1ccsc1
pIC50: > 7.00

Reported pIC50 (VIM-2 (Escherichia coli)) for entry O=C(Cn1cc(CNCCCC(F)(F)F)nn1)N[C@H]1Cc2cccc(C(=O)O)c2OB1O is 6.00 to 7.00

pIC50 for VIM-2 (Escherichia coli) with input CC(C)(C(=O)N[C@H]1Cc2cccc(C(=O)O)c2OB1O)n1cc(CN)nn1 equals > 7.00

Short answer on VIM-2 (Escherichia coli) for CNC(=O)c1cn(CC(=O)N[C@H]2Cc3cccc(C(=O)O)c3OB2O)nn1 , pIC50: 6.00 to 7.00

# value of pIC50, VIM-2 (Escherichia coli), item O=C(Cn1cc(CF)nn1)N[C@H]1Cc2cccc(C(=O)O)c2OB1O = 5.00 to 6.00

Measured pIC50 (VIM-2 (Escherichia coli)), entry N=C(N)NCCn1nnnc1CC(=O)N[C@H]1Cc2cccc(C(=O)O)c2OB1O : > 7.00

Entry NCCCn1nnnc1CC(=O)N[C@H]1Cc2cccc(C(=O)O)c2OB1O , tested on VIM-2 (Escherichia coli), has a reported pIC50 of > 7.00

Lab note: molecule O=C(Cn1cc(CCO)nn1)N[C@H]1Cc2cccc(C(=O)O)c2OB1O tested on VIM-2 (Escherichia coli); recorded pIC50 was 4.00 to 5.00

---

Entries and their measured pIC50 follow.
Target: KPC-2 (Klebsiella pneumoniae)
Construct: made in house; host or cells: E. coli BL21(DE3)
Assay: β-lactamase enzyme inhibition assay, KPC-2 (imipenem substrate)
Assay type: biochemical
Details: Class A; imipenem substrate, 300 nm; read-out: KPC-2
pIC50: −log10 of the molar value.

Before answering, review these 4 worked examples.
molecule: NCCCn1nnnc1CC(=O)N[C@H]1Cc2cccc(C(=O)O)c2OB1O
experimental.system: KPC-2 (Klebsiella pneumoniae)
val: > 7.00
//
molecule: NCc1cn(CCC(=O)N[C@H]2Cc3cccc(C(=O)O)c3OB2O)nn1
experimental.system: KPC-2 (Klebsiella pneumoniae)
val: > 7.00
//
molecule: N=C(N)NCCn1nnnc1CC(=O)N[C@H]1Cc2cccc(C(=O)O)c2OB1O
experimental.system: KPC-2 (Klebsiella pneumoniae)
val: > 7.00
//
molecule: NCCn1cncc1C(=O)N[C@H]1Cc2cccc(C(=O)O)c2OB1O
experimental.system: KPC-2 (Klebsiella pneumoniae)
val: > 7.00

For NCCn1cnnc1CC(=O)N[C@H]1Cc2cccc(C(=O)O)c2OB1O the compound record lists pIC50 as 6.00 to 7.00

Form: compound = CSCC[C@@H](C(=O)N[C@H]1Cc2cccc(C(=O)O)c2OB1O)n1cc(CN)nn1 ; pIC50 = 6.00 to 7.00

Memo: NCCn1cc(CC(=O)N[C@H]2Cc3cccc(C(=O)O)c3OB2O)nn1 , reported pIC50: > 7.00

Reported pIC50 ( N=C(N)N1CC(c2cn(CC(=O)N[C@H]3Cc4cccc(C(=O)O)c4OB3O)nn2)C1 ) = > 7.00

---

Target: VIM-2 (Escherichia coli, UniProt Q5U7L7)
Construct: made in house; host or cells: E. coli BL21(DE3)
Assay: β-lactamase enzyme inhibition assay, VIM-2 (nitrocefin substrate)
Assay type: biochemical
recorded.endpoint: IC50

Known IC50 results, listed for orientation:
molecule: C[Si](C)(C)c1cn(CC(=O)N[C@H]2Cc3cccc(C(=O)O)c3OB2O)nn1
recorded.endpoint: IC50
val: 1000 to 10000 nM
--
molecule: NCCn1cc(Cn2nnnc2CC(=O)N[C@H]2Cc3cccc(C(=O)O)c3OB2O)nn1
recorded.endpoint: IC50
val: 1000 to 10000 nM

Now for the molecule whose IC50 we want.
# value of IC50, VIM-2 (Escherichia coli, UniProt Q5U7L7), item NCCc1cnnn1CC(=O)N[C@H]1Cc2cccc(C(=O)O)c2OB1O = 100 to 1000 nM

---

Target: KPC-2 (Klebsiella pneumoniae, UniProt Q9F663)
Construct: made in house; host or cells: E. coli BL21(DE3)
Sequence (Q9F663 25-293, looked up): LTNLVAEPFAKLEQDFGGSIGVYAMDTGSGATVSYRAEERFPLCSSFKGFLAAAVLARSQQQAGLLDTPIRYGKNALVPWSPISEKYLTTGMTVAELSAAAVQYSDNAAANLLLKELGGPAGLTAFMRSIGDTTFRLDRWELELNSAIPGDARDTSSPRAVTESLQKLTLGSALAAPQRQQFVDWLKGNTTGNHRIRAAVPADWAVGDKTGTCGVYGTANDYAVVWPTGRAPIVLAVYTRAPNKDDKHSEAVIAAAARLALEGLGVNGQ
Experiment: β-lactamase enzyme inhibition assay, KPC-2 (imipenem substrate)
Format: biochemical
Details: Class A; imipenem substrate, 300 nm; read-out: KPC-2
Listed here are molecules together with their documented IC50.

Consider the following illustrative entries.
molecule: NCc1cn(CC(=O)N[C@H]2Cc3cccc(C(=O)O)c3OB2O)nn1
val: < 100 nM

molecule: NCCONC(=O)c1cn(CC(=O)N[C@H]2Cc3cccc(C(=O)O)c3OB2O)nn1
val: < 100 nM

molecule: CCOC(=O)c1nnn(CC(=O)N[C@H]2Cc3cccc(C(=O)O)c3OB2O)c1C(=O)OCC
val: < 100 nM

molecule: O=C(Cc1cn2ccsc2n1)N[C@H]1Cc2cccc(C(=O)O)c2OB1O
val: < 100 nM

molecule: CNCc1nnn(CC(=O)N[C@H]2Cc3cccc(C(=O)O)c3OB2O)c1CO
val: 100 to 1000 nM

What the record says about O=C(Cn1cc(C(=O)N[C@@H]2CCNC2)nn1)N[C@H]1Cc2cccc(C(=O)O)c2OB1O : IC50 is < 100 nM

Short answer for NCC(=O)NCc1cn(CC(=O)N[C@H]2Cc3cccc(C(=O)O)c3OB2O)nn1 : IC50 was 100 to 1000 nM

Looking up COc1c(C[C@H](NC(=O)Cn2cc(CN)nn2)B(O)O)cccc1C(=O)O , I see its IC50 listed as < 100 nM

---

Target: VIM-2 (Escherichia coli)
Construct: made in house; host or cells: E. coli BL21(DE3)
Assay: β-lactamase enzyme inhibition assay, VIM-2 (nitrocefin substrate)
Assay type: biochemical
Conditions: Class B; nitrocefin substrate, 486 nm; read-out: VIM-2
IC50 for assorted molecules

As a guide, the following entries are already answered.
molecule: NCC(O)Cc1cn(CC(=O)N[C@H]2Cc3cccc(C(=O)O)c3OB2O)nn1 (some centres unmarked)
IC50: < 100 nM
//
molecule: NC(=O)c1ncn(CC(=O)N[C@H]2Cc3cccc(C(=O)O)c3OB2O)n1
IC50: 1000 to 10000 nM
//
molecule: CC(C)(CN)CNC(=O)c1cn(CC(=O)N[C@H]2Cc3cccc(C(=O)O)c3OB2O)nn1
IC50: < 100 nM
//
molecule: NCCONC(=O)c1cn(CC(=O)N[C@H]2Cc3cccc(C(=O)O)c3OB2O)nn1
IC50: 100 to 1000 nM
//
molecule: N=C(N)NCCCn1nnnc1CC(=O)N[C@H]1Cc2cccc(C(=O)O)c2OB1O
IC50: < 100 nM

Observed IC50, VIM-2 (Escherichia coli), CNCc1cn(CC(=O)N[C@H]2Cc3cccc(C(=O)O)c3OB2O)nn1 : < 100 nM

Kindly note: VIM-2 (Escherichia coli), O=C(Cn1cc(C(=O)N[C@H]2CCNC2)nn1)N[C@H]1Cc2cccc(C(=O)O)c2OB1O , IC50 value reported: < 100 nM

Lab entry: VIM-2 (Escherichia coli) assay, molecule NCCn1cncc1C(=O)N[C@H]1Cc2cccc(C(=O)O)c2OB1O , IC50 = 100 to 1000 nM

---

Target: OXA-48 (UniProt Q6XEC0)
Test: β-lactamase enzyme inhibition assay, Class D oxacillinase
Type: biochemical
Details: read-out: OXA-48
recorded.endpoint: IC50

Study these solved cases before continuing.
molecule: N[C@@H]1CCN(C(=O)c2cn(CC(=O)N[C@H]3Cc4cccc(C(=O)O)c4OB3O)nn2)C1
recorded.endpoint: IC50
val: 0.1 to 1 µM
//
molecule: Nc1ccc(S(=O)(=O)NCc2cn(CC(=O)N[C@H]3Cc4cccc(C(=O)O)c4OB3O)nn2)cc1
recorded.endpoint: IC50
val: 0.1 to 1 µM
//
molecule: NCc1nnn(CC(=O)N[C@H]2Cc3cccc(C(=O)O)c3OB2O)c1-c1ccsc1
recorded.endpoint: IC50
val: < 0.1 µM
//
molecule: NCCS(=O)(=O)NCc1cn(CC(=O)N[C@H]2Cc3cccc(C(=O)O)c3OB2O)nn1
recorded.endpoint: IC50
val: 1 to 10 µM
//
molecule: N=C(N)NCCCn1nnnc1CC(=O)N[C@H]1Cc2cccc(C(=O)O)c2OB1O
recorded.endpoint: IC50
val: 1 to 10 µM
//
molecule: C[Si](C)(C)c1cn(CC(=O)N[C@H]2Cc3cccc(C(=O)O)c3OB2O)nn1
recorded.endpoint: IC50
val: 0.1 to 1 µM
//
molecule: CCN(CC)Cc1cn(CC(=O)N[C@H]2Cc3cccc(C(=O)O)c3OB2O)nn1
recorded.endpoint: IC50
val: 0.1 to 1 µM

Entry CC(C)(C(=O)N[C@H]1Cc2cccc(C(=O)O)c2OB1O)n1cc(CNCCN)nn1 , tested on OXA-48 (UniProt Q6XEC0), has a reported IC50 of < 0.1 µM
